Data provenance: ChEMBL document CHEMBL1773047

Test system: Trypanosoma brucei rhodesiense
Assay: Antiparasitic activity against Trypanosoma brucei rhodesiense STIB 900 bloodstream form after 72 hrs by microplate fluorimetry
Type: functional, organism-based
Conditions: STIB 900, 72 h
Exercise: state measured pIC50 for each of the compounds provided.
Answers are plain numbers, as −log10 of the molar value.

CC(C)=CCCC(C)C1CC=C(C)C(O)C1O (stereo not drawn) :: 4.42
CCCCCC(=O)Cc1cc(OC)cc(O)c1C(=O)Oc1cc(CC(=O)CCCCC)c(C(=O)OC)c(OC)c1 :: 4.71
CC1(C)CC[C@]2(C)CC=C3[C@]4(C)CC[C@H]5C(C)(C)[C@@H](O)CC[C@]5(C)[C@H]4CC[C@@]3(C)[C@@H]2C1 :: 4.98

Now look at this one.
GET /values?readout=pIC50&system=Trypanosoma brucei rhodesiense&item= CC(C)=CCC[C@H](C)[C@@H]1C=C[C@](C)(O)[C@@H](O)C1
4.21
